TEST_SYSTEM: MAP kinase-activated protein kinase 2 (Homo sapiens, UniProt P49137); also: in the data inactive means no Kd found up to 30 µM
Sequence (P49137 whole entry): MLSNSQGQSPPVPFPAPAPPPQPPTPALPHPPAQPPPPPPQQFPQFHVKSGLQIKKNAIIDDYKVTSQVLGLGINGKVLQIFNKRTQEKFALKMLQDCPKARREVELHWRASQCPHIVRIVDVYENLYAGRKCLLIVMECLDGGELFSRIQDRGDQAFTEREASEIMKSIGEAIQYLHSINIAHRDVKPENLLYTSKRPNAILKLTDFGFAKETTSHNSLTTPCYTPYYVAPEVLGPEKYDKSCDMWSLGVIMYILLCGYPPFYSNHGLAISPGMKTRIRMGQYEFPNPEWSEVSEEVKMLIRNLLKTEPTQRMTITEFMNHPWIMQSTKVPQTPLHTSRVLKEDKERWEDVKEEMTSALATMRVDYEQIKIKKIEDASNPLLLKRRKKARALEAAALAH
Counter-ions that a name gives are not always drawn. The source made the active and inactive calls.
API: response.call in active, inactive

Use the examples below as a reference point.
Please state the recorded outcome for this compound: O=C(Cc1ccc(-c2ccc(OCCN3CCOCC3)cc2)cn1)NCc1ccccc1 [TIRBANIBULIN]
inactive

# lookup: test call for CCS(=O)(=O)N1CCN(c2ccc(Nc3ncc(C(N)=O)c(NC4CC4)n3)cc2)CC1 [Cerdulatinib Hydrochloride]
inactive

Hi, do you know how N#CC1(c2ccc(NC(=O)c3cccnc3NCc3ccncc3)cc2)CCCC1 [RIVOCERANIB] came out in this test?
inactive

Given Cn1cc(-c2cnn3c(N)c(Br)c([C@@H]4CCCNC4)nc23)cn1 [SCH-900776] , state the outcome it received in this test.
inactive

Hi, sorry to bother you, what did the test record for O=C(Nc1c[nH]nc1-c1nc2cc(CN3CCOCC3)ccc2[nH]1)NC1CC1 [AT-9283] ?
inactive

More entries:
Entry CCn1c(C(=O)N(C2CC2)C2CC2)cc2c3c(ncn3C)c(Nc3cc(C)n(C)n3)nc21 [BMS-911543] : call = ?
inactive

Please state the recorded outcome for this compound: FC(F)(F)c1ccc(/C=C/c2nc(COc3ccc(CCCCn4ccnn4)cc3)co2)cc1 [MUBRITINIB]
inactive

GET /call?item= CO[C@H]1C[C@@H]2CC[C@@H](C)[C@@](O)(O2)C(=O)C(=O)N2CCCC[C@H]2C(=O)O[C@H]([C@H](C)C[C@@H]2CC[C@@H](OP(C)(C)=O)[C@H](OC)C2)CC(=O)[C@H](C)/C=C(\C)[C@@H](O)[C@@H](OC)C(=O)[C@H](C)C[C@H](C)/C=C/C=C/C=C/1C [RIDAFOROLIMUS] returns the recorded outcome of this test.
inactive

Give the logged outcome of this assay for the following compound: Cn1cc(-c2cnc3ccc4ccc(CS(=O)(=O)NCc5ccccn5)cc4c(=O)c3c2)cn1 [MK-8033]
inactive

What classification did C=CC(=O)N1CCC[C@H](n2c(=O)n(-c3ccc(Oc4ccccc4)cc3)c3c(N)ncnc32)C1 end up with in this test?
inactive

Give the logged outcome of this assay for the following compound: Cn1cnc2c(F)c(Nc3ccc(Br)cc3F)c(C(=O)NOCCO)cc21 [BINIMETINIB]
inactive

Just curious, what result did C[C@@H](N)c1ccc(C(=O)Nc2ccnc3[nH]ccc23)cc1 [Y-39983] get here?
inactive

Which outcome was assigned to CC(C)c1cc(CNc2nc(Nc3cc(C4CC4)[nH]n3)cc(N3CCN(C)CC3)n2)on1 [XL-228] in this test?
inactive

Just curious, what result did Cc1csc(-c2nnc(Nc3ccc(Oc4ncccc4-c4ccnc(N)n4)cc3)c3ccccc23)c1 [AMG-900] get here?
active

* * *

TEST_SYSTEM: Serine/threonine-protein kinase 10 (Homo sapiens, UniProt O94804); also: in the data inactive means no Kd found up to 30 µM
Sequence (O94804 whole entry): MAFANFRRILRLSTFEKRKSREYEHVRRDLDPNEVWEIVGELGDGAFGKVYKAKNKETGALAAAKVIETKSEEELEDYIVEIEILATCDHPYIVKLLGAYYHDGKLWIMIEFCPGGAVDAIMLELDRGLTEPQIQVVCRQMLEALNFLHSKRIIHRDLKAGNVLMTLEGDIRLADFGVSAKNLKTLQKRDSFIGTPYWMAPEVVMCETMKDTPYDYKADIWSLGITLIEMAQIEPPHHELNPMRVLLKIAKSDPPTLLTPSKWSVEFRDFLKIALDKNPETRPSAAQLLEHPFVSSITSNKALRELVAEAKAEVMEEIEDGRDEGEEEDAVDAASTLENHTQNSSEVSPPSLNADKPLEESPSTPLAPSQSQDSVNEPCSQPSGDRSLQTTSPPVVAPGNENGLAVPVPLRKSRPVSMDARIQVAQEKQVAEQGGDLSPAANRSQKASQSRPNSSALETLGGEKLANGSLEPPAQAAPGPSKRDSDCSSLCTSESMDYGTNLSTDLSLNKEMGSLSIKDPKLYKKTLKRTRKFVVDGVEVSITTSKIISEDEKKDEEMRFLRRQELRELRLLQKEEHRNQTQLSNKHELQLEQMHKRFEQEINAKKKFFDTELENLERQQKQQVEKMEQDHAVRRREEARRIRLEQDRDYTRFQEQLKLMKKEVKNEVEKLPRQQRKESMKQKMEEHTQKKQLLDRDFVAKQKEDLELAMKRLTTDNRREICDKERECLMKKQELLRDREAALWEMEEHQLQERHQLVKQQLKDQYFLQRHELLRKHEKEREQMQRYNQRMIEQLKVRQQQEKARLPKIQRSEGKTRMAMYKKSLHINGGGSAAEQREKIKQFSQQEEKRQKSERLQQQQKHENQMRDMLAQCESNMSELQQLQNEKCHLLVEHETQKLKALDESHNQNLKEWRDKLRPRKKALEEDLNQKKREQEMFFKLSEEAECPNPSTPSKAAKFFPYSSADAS
Where a name gives a salt, the structure may show the parent alone. Activity calls are given as the source filed them.
Respond using exactly one of the listed classes: T for active, F for inactive

Known results for compounds:
Hi team, can someone confirm the assay call for COc1c(OCCCN2CCOCC2)ccc2c1N=C(NC(=O)c1cnc(N)nc1)N1CCN=C21 [COPANLISIB] ?
F

# fetch the recorded call for NC(=O)Nc1cc(-c2cccc(F)c2)sc1C(=O)N[C@H]1CCCNC1 [AZD-7762] here
T

Test call, this compound: Cc1cc(Nc2ncnc3ccc(NC4=NC(C)(C)CO4)cc23)ccc1Oc1ccn2ncnc2c1 [TUCATINIB]
F

Which outcome was assigned to N#CC1(c2ccc(NC(=O)c3cccnc3NCc3ccncc3)cc2)CCCC1 [RIVOCERANIB] in this test?
F

# fetch the recorded call for CCS(=O)(=O)N1CCN(c2ccc(Nc3ncc(C(N)=O)c(NC4CC4)n3)cc2)CC1 [Cerdulatinib Hydrochloride] here
F

What outcome does the record of this test show for Cc1csc(-c2nnc(Nc3ccc(Oc4ncccc4-c4ccnc(N)n4)cc3)c3ccccc23)c1 [AMG-900] ?
F

Continuing:
What classification did Cn1ncc(Cl)c1-c1cc(C(=O)N[C@H](CN)Cc2ccc(F)c(F)c2)oc1Cl [UPROSERTIB] end up with in this test?
F

// param item: COc1cc2c(Nc3ccc(Cl)c(Cl)c3F)ncnc2cc1OC[C@@H]1C[C@@H]2CN(C)C[C@@H]2C1 [TESEVATINIB] ; yields the recorded call
T

So what was the verdict on O=C1NC(=O)[C@@H](c2cn3c4c(cccc24)CCC3)[C@@H]1c1c[nH]c2ccccc12 [TIVANTINIB] in this test?
F

Hey, what did the test say about COc1ccc(S(=O)(=O)N(C(C)=O)c2ccccc2/C=C/c2cc[n+]([O-])cc2)cc1 [HMN-214] ?
F

Could you check what this test reported for C#Cc1cccc(Nc2ncnc3cc(OC)c(OCCCCCCC(=O)NO)cc23)c1 [CUDC-101] ?
T

For CCS(=O)(=O)c1cccc(-c2cc(C(=O)NC3CCN(C)CC3)c(C)c3[nH]c4ncc(C)cc4c23)c1 [TAK-901] , what call appears in the results of this test?
T

Kindly provide the recorded test outcome for the following compound: O=C(Nc1cc(C(F)(F)F)cc(C(F)(F)F)c1)c1cc(Cl)ccc1O [IMD-0354]
F

// param item: CO[C@H]1C[C@@H]2CC[C@@H](C)[C@@](O)(O2)C(=O)C(=O)N2CCCC[C@H]2C(=O)O[C@H]([C@H](C)C[C@@H]2CC[C@@H](O)[C@H](OC)C2)CC(=O)[C@H](C)/C=C(\C)[C@@H](O)[C@@H](OC)C(=O)[C@H](C)C[C@H](C)/C=C/C=C/C=C/1C [SIROLIMUS] ; yields the recorded call
F
